meta.source: BindingDB's records for doi:10.1021/jm031016d

- system-name: Cyclin-dependent kinase 1/G2/mitotic-specific cyclin-B (Marthasterias glacialis, UniProt P15206+Q9DGD3)
- Sequence (Q9DGD3 whole entry): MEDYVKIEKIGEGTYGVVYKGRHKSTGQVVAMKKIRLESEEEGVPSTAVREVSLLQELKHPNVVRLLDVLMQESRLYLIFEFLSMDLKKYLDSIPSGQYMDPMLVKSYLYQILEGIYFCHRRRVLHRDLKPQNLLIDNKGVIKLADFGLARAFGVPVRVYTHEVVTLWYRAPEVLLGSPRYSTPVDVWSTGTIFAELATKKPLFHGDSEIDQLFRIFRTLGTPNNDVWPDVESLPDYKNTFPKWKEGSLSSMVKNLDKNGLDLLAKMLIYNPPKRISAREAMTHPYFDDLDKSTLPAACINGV
- Sequence (P15206 whole entry): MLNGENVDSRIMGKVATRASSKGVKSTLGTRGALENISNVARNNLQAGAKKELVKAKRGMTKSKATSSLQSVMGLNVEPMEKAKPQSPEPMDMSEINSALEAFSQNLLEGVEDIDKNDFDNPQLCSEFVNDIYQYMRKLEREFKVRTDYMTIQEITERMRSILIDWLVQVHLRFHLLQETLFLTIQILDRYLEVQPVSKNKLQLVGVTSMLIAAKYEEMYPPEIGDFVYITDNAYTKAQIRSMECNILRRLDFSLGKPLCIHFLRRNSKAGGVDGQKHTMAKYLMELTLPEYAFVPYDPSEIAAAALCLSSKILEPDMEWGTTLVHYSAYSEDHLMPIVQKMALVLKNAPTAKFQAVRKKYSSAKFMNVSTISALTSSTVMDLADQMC
- protocol-details: Kinase Inhibition Assay
- measurement-parameters: 30 °C
measurement-type: pIC50
Answer as the number alone; pIC50 is minus log10 of concentration in mol/L.

Record excerpt, results attached:
# molecule, pIC50
rows = [
    ("Cc1cc2c(cc1Br)NC(=O)/C2=C1\\Nc2ccccc2C1=O [6-bromo-5-methylindirubin]", 4.52),
    ("CN1C(=O)C(c2[nH]c3ccccc3c2N=O)c2ccccc21 (stereo unspecified)", 4.14),
    ("C=Cc1ccc2c(c1)NC(=O)C2=C1Nc2ccccc2C1=NOC(C)=O", 5.80),
    ("O=C1Nc2cccc(Cl)c2/C1=C1/Nc2ccccc2C1=O", 5.00),
    ("C=Cc1ccc2c(c1)NC(=O)/C2=C1\\Nc2ccccc2C1=O [6-vinylindirubin]", 5.38),
    ("CC(=O)ON=C1C(=C2C(=O)Nc3cc(I)ccc32)Nc2ccccc21 [(2 Z,3 E)-6-Iodoindirubin-3-acetoxime]", 5.66),
]

Report pIC50 for O=Nc1c(C2C(=O)Nc3cc(F)ccc32)[nH]c2ccccc12 (stereo unspecified) please.
6.49

Then what about the molecule C=Cc1ccc2c(c1)NC(=O)C2c1[nH]c2ccccc2c1N=O (stereo unspecified) [6-vinylindirubin-3-oxime] ?
5.92

Then what about the molecule O=C1Nc2cc(Cl)c(Cl)cc2/C1=C1/Nc2ccccc2C1=O [(2 Z)-5,6-Dichloroindirubin] ?
4.35

---

- system-name: Cyclin-dependent kinase 1/G2/mitotic-specific cyclin-B (Marthasterias glacialis, UniProt P15206+Q9DGD3)
- protocol-details: Kinase Inhibition Assay
- measurement-parameters: pH 7.2; 30 °C
pIC50: −log10 of the molar value.
Kindly return 1 if reported pIC50 is no lower than 5; return -1 if it is lower.

Please review the entries below; each comes with its answer.
# molecule, class-assignment
rows = [
    ("O=Nc1c(C2C(=O)Nc3cc(Cl)ccc32)[nH]c2ccccc12 (centres undefined)", 1),
    ("CO/N=C1/C(=C2/C(=O)Nc3cc(Br)ccc32)Nc2ccccc21", 1),
    ("CC(=O)ON=C1C(=C2C(=O)Nc3cc(Cl)ccc32)Nc2ccccc21", -1),
    ("O=Nc1c(C2C(=O)Nc3cc(Br)ccc32)[nH]c2cc(Br)ccc12 (centres undefined)", -1),
    ("CN1C(=O)C(c2[nH]c3ccccc3c2N=O)c2ccc(Br)cc21 (centres undefined)", -1),
    ("O=C1Nc2cc(Cl)ccc2/C1=C1/Nc2ccccc2C1=O", -1),
    ("O=C1Nc2cc(Br)ccc2/C1=C1/Nc2cc(Br)ccc2C1=O", -1),
    ("O=C1Nc2cc(I)ccc2/C1=C1/Nc2ccccc2C1=O", 1),
]

Now for another entry.
Could you please find out whether CN1C(=O)/C(=C2\Nc3ccccc3C2=O)c2ccc(Br)cc21 has pIC50 that meets 5 or exceeds it?
-1

---

- system-name: Cyclin-dependent kinase 5 activator 1 [99-307] (Homo sapiens, UniProt Q00535)
- Sequence (Q15078 99-307): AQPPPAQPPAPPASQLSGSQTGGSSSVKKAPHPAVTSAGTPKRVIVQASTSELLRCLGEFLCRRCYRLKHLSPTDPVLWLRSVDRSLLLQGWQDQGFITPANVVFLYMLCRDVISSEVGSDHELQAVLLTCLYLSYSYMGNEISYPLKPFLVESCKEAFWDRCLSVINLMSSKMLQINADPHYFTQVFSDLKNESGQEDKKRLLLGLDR
- Sequence (Q00535 whole entry): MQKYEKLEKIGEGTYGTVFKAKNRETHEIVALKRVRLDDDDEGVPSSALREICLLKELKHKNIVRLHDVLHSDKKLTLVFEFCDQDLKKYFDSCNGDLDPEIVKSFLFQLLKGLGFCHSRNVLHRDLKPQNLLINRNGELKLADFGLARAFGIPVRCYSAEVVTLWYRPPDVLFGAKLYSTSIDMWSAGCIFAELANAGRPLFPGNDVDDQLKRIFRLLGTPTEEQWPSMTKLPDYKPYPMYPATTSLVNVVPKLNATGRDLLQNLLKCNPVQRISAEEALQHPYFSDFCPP
measurement-type: log10(IC50) (log10 of the value in µM)
Transform log10 | Measure IC50 | Unit µM

Record excerpt, results attached:
# compound, numeric-result
rows = [
    ("O=C1Nc2cccc(Cl)c2/C1=C1/Nc2ccccc2C1=O", 1.00),
    ("O=Nc1c(C2C(=O)Nc3cc(Br)ccc32)[nH]c2cc(Br)ccc12 (stereo not given)", 0.11),
    ("CO/N=C1/C(=C2/C(=O)Nc3ccccc32)Nc2ccccc21", -0.40),
    ("Cc1cc2c(cc1Br)NC(=O)C2c1[nH]c2ccccc2c1N=O (stereo not given)", -0.89),
    ("O=C1Nc2cc(I)ccc2/C1=C1/Nc2ccccc2C1=O", 0.72),
    ("O=C1Nc2cc(Cl)c(Cl)cc2/C1=C1/Nc2ccccc2C1=O", 1.78),
    ("CC(=O)ON=C1C(=C2C(=O)Nc3cc(I)ccc32)Nc2ccccc21", 0.11),
]

API: the following record is the query input.
Report log10(IC50) for CC(=O)ON=C1C(=C2C(=O)Nc3ccccc32)Nc2ccccc21 please.
-0.15
